Reference for the values: patent US4743585A

I'd appreciate it if you could supply pIC50 values for the items below.
Target: renin (Homo sapiens)
Sequence (P00797 67-406): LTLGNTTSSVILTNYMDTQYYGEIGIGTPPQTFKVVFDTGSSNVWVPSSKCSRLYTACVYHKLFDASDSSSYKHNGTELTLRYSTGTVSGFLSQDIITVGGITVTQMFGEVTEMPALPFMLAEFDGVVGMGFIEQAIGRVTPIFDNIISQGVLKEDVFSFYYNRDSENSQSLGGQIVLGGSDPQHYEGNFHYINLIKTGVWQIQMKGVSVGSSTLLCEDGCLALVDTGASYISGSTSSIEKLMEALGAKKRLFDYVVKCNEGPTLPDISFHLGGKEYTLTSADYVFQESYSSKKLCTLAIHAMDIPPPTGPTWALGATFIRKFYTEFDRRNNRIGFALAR
Test: in vitro renin inhibitory activity, standard radioimmunoassay for angiotensin I
Type: biochemical
Answers are plain numbers, as −log10 of the molar value.

| COMPOUND | EXPERIMENTAL TARGET | OBS VALUE |
| --- | --- | --- |
| CC(C)CC(=O)N[C@@H](Cc1ccccc1)C(=O)N[C@@H](Cc1c[nH]cn1)C(=O)N[C@H](CN[C@@H](CC(C)C)C(=O)NCc1ccccc1)CC1CCCCC1 | renin (Homo sapiens) | 6.55 |
| CC(C)CC(=O)N[C@@H](Cc1ccccc1)C(=O)N[C@@H](Cc1c[nH]cn1)C(=O)N[C@@H](CC1CCCCC1)C(O)CCC(=O)N[C@@H](CC(C)C)C(=O)NCc1cccc(CN)c1 (stereo partly drawn) | renin (Homo sapiens) | 6.92 |
| CC(C)C[C@H](NC(=O)C[C@H](O)[C@H](CC1CCCCC1)NC(=O)C/C=C/[C@H](Cc1ccccc1)NC(=O)OC(C)(C)C)C(=O)NCc1cccc(CNC(=O)OCc2ccccc2)c1 | renin (Homo sapiens) | 5.10 |
| CC(C)C[C@H](NC(=O)CCC(=O)C(Cc1ccccc1)NC(=O)OC(C)(C)C)[C@@H](O)CC(=O)N[C@@H](C)C(=O)N[C@@H](CC(C)C)[C@@H](O)CC(=O)NCc1ccccc1 (stereo partly drawn) | renin (Homo sapiens) | 4.52 |
| CC(C)C[C@H](NC(=O)[C@H](C)NC(=O)C[C@H](O)[C@H](CC(C)C)NC(=O)[C@H](Cc1ccccc1)NC[C@H](Cc1ccccc1)NC(=O)OC(C)(C)C)[C@@H](O)CC(=O)NCc1ccccc1 [Example 59, BOC-PHE[CH2 NH]PHE-STA-ALA-STA-NHCH2 Ph] | renin (Homo sapiens) | 5.25 |

Please state pIC50 for every compound in the list that follows.
1. CCC(C)CNC(=O)CCC(O)[C@H](Cc1ccccc1)NC(=O)[C@H](Cc1c[nH]cn1)NC(=O)[C@H](Cc1ccccc1)NC(=O)OC(C)(C)C (stereo partly drawn)
2. CC(C)CC(=O)N[C@@H](Cc1ccccc1)C(=O)N[C@@H](Cc1c[nH]cn1)C(=O)N[C@@H](CC1CCCCC1)C(O)CCC(=O)NCc1ccccc1 (stereo partly drawn)
3. CC(C)CC(=O)N[C@H](CN[C@H](C(=O)N[C@@H](CC(C)C)[C@@H](O)CC(=O)NCc1ccccc1)C(C)C)C(C)C [Example 54, IVA-VAL[CH2 NH]VAL-STA-NHCH2 Ph]
4. CC(C)CC(NC(=O)CC(O)C(CC(C)C)NC(=O)CC(O)C(O)C(Cc1c[nH]c2ccccc12)NC(=O)OC(C)(C)C)C(=O)NCc1ccccc1 (stereo not drawn)

OUT:
1: 7.12; 2: 6.60; 3: 4.52; 4: 5.64
